All figures here come from patent US7968556B2.

# melting point per record follows

Observe how each entry below is paired with its result.
[[record]]
molecule = "COc1ccccc1-n1c(=O)[nH]c2c(C(N)=O)nc(-c3cccc(OC(F)(F)F)c3)nc21 [Compound 34]"
readout = "melting point"
result = "269 to 272 °C"

[[record]]
molecule = "COc1ccccc1-n1c(=O)[nH]c2c(C(N)=O)nc(N[C@H]3CC[C@H](O)CC3)nc21 [Compound 108]"
readout = "melting point"
result = "165 to 167 °C"

[[record]]
molecule = "COc1ccccc1-n1c(=O)[nH]c2c(C(N)=O)nc(-c3cccc(C(F)(F)F)c3)nc21 [Compound 20]"
readout = "melting point"
result = "271 to 275 °C"


Exercise: Using the record for NC(=O)c1nc(-c2cccnc2)nc2c1NC(=O)CN2c1ccccc1 [Compound 36] , report its melting point.
Key: 294 to 296 °C
